target: human GPBAR1 receptor (Homo sapiens, UniProt Q8TDU6); construct: expressed in transfected cells; experiment: functional cAMP assay in CHO-dhfr(minus) cells expressing human GPBAR1 receptors; assay type: cell-based; conditions: human EC50, functional cAMP assay, 30 min at 30° C.
pEC50: −log10 of the molar value.
Response key: true (1) means pEC50 >= 7; false (0) means pEC50 < 7.

{"columns": ["molecule", "measurement.target", "cat"],
 "data": [
  ["Cn1cc(/C(CC(c2cccc(S(C)(=O)=O)c2)c2ccc(Cl)cc2F)=N/O)ccc1=O (stereo not shown) [Example 315]", "human GPBAR1 receptor (Homo sapiens, UniProt Q8TDU6)", "false (0)"],
  ["Cc1cc(/C(C[C@H](c2ccc(S(C)(=O)=O)cc2)c2ccc(Cl)cc2C)=N/O)ccn1 [Example 359]", "human GPBAR1 receptor (Homo sapiens, UniProt Q8TDU6)", "true (1)"],
  ["CCOC(=O)C(C(=O)OCC)c1ccc([C@H](C/C(=N\\O)c2ccnc(C)c2)c2ccccc2C)cc1 [Example 286]", "human GPBAR1 receptor (Homo sapiens, UniProt Q8TDU6)", "false (0)"],
  ["Cc1[nH]c2ccccc2c1C(CC(=NO)c1ccncc1)c1ccc(N(C)C)cc1 (racemic) [Example 63]", "human GPBAR1 receptor (Homo sapiens, UniProt Q8TDU6)", "false (0)"],
  ["Cc1cc(Cl)ccc1[C@H](C/C(Cc1ccccn1)=N\\O)c1ccc(Br)cc1 [Example 362]", "human GPBAR1 receptor (Homo sapiens, UniProt Q8TDU6)", "false (0)"]
]}

Assess whether reported pEC50 for Cc1cc(/C(C[C@H](c2ccc(N3CCC(C(=O)NCC(=O)O)CC3)cc2)c2ccccc2C)=N/O)ccn1 [Example 369] sits at 7 or higher.
true (1)

pEC50 >= 7 for Cc1cc(/C(CC(c2ccc(-c3ccc(C(=O)O)cc3)cc2)c2ccc(F)cc2C)=N/O)ccn1 (stereo not shown) [Example 141] ?
true (1)

###

Biological target: human GPBAR1 receptor (Homo sapiens, UniProt Q8TDU6)
Construct: expressed in transfected cells
Sequence (Q8TDU6 1-330): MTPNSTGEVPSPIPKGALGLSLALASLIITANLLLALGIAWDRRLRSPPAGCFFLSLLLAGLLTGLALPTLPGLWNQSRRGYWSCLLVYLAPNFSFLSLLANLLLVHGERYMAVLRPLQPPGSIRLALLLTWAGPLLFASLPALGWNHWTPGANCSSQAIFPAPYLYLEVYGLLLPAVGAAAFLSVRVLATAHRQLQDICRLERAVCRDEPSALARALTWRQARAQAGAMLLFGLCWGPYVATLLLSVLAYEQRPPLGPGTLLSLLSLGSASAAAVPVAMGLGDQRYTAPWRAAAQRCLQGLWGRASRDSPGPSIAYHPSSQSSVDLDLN
Test: functional cAMP assay in CHO-dhfr(minus) cells expressing human GPBAR1 receptors
Assay type: cell-based
Conditions: human EC50, functional cAMP assay, 30 min at 30° C.
measurement.kind: pEC50
Here pEC50 is given on a logarithmic scale as minus log10 of the concentration in mol/L.

Solved entries (count: 5):
{"columns": ["compound", "recorded.result"],
 "data": [
  ["Cc1cc(Cl)ccc1C(C/C(=N\\O)c1ccc(=O)n(CC(N)=O)c1)c1ccc(S(C)(=O)=O)cc1 (stereo not shown)", 5.43],
  ["Cc1cc(/C(C[C@H](c2ccc(-c3cn(CC(=O)O)nn3)cc2)c2ccccc2C)=N/O)ccn1 (single isomer, unassigned)", 7.85],
  ["Cn1cc(/C(CC(c2ccc(C(=O)NCC(F)(F)F)c(F)c2)c2ccccc2Cl)=N/O)ccc1=O (stereo not shown)", 6.42],
  ["Cc1ccccc1C(C/C(=N\\O)c1ccc(=O)n(C)c1)c1ccc(C(=O)NC(CO)CO)cc1 (stereo not shown)", 6.30],
  ["COCCOCCn1cc(/C(CC(c2ccc(S(C)(=O)=O)cc2)c2ccc(Cl)cc2C)=N/O)ccc1=O (stereo not shown)", 7.05]
]}

What value of pEC50 has been reported for the following compound? CNS(=O)(=O)c1ccc(-c2ccc(C(C/C(=N\O)c3ccncc3)c3ccccc3)cc2)cc1 (stereo not shown)
6.52

Consider the compound shown here: CC(/C(=N\O)c1ccncc1)C(c1ccccc1)c1ccccc1 (stereo not shown) What is its recorded pEC50?
6.82

###

Entries and their measured EC50 follow.
target: human GPBAR1 receptor (Homo sapiens); construct: expressed in transfected cells; test: functional cAMP assay in CHO-dhfr(minus) cells expressing human GPBAR1 receptors; assay type: cell-based; details: human EC50, functional cAMP assay, 30 min at 30° C.
Give your result in nM as a bare value.

Consider the compound O/N=C(/CC(c1ccccc1)c1ccccc1)c1cc(Cl)nc(Cl)c1 [Example 73] and give its measured EC50.
4430

For the compound Cc1ccccc1C(C/C(=N\O)c1ccn(C)c(=O)c1)c1ccc(Br)cc1 (centres unmarked) [Example 110] , what EC50 is on record?
116

Quick check: EC50 of Cc1cc(/C(C[C@H](c2ccc(N3CCS(=O)(=O)CC3)cc2)c2ccccc2C)=N/O)ccn1 [Example 271] ?
11

Return reported EC50; argument: COCCc1nnc(-c2ccc([C@@H](C/C(=N\O)c3ccnc(C)c3)c3ccccc3C)cc2)o1 [Example 420]
15

EC50 lookup needed for Cc1ccccc1C(C/C(=N\O)c1ccc(=O)n(C)c1)c1ccc(C(=O)N2CCC(CC(=O)O)CC2)cc1 (centres unmarked) [Example 210] , thanks.
6890

# input compound: CCCC(C/C(=N\O)c1ccc(=O)n(C)c1)c1ccc(Br)cc1F (centres unmarked) [Example 191] ; wanted: its EC50
375

For the compound shown here, Cc1cc(/C(C[C@H](c2ccc(N[C@H]3C[C@H](C(=O)O)C3)cc2)c2ccccc2C)=N/O)ccn1 [Example 356] , give the reported EC50.
90

Requested read-out: EC50. Entry: Cc1cc(C(=O)O)ccc1-c1ccc(C(C/C(=N\O)c2ccc(=O)n(C)c2)c2ccc(Cl)cc2Cl)cc1 (racemic) [Example 476]
49

###

target: human GPBAR1 receptor (Homo sapiens, UniProt Q8TDU6); construct: expressed in transfected cells; test: functional cAMP assay in CHO-dhfr(minus) cells expressing human GPBAR1 receptors; format: cell-based; settings: human EC50, functional cAMP assay, 30 min at 30° C.
Quick reference for EC50 among some molecules
Please state the figure in nM; there is no need to write the unit.

# value lookup — system human GPBAR1 receptor (Homo sapiens, UniProt Q8TDU6), readout EC50, item Cc1cc(Cl)ccc1C(C/C(=N\O)c1ccc(=O)n(C)c1)c1ccc(S(C)(=O)=O)cc1 (stereo not drawn) [Example 331]
38

Query for human GPBAR1 receptor (Homo sapiens, UniProt Q8TDU6): what EC50 does the record show for Cc1cc(/C(C[C@H](c2ccccc2)c2ccccc2C)=N/O)ccn1 [Example 368] ?
18

Entry CCOCCn1cc(/C(CC(c2ccc(S(C)(=O)=O)cc2)c2ccc(Cl)cc2C)=N/O)ccc1=O (stereo not drawn) [Example 340] , system human GPBAR1 receptor (Homo sapiens, UniProt Q8TDU6): what EC50 was measured?
221

Tell me reported EC50 for Cc1cc(/C(C[C@H](c2ccc(N3CCN(S(C)(=O)=O)CC3)cc2)c2ccccc2C)=N/O)ccn1 [Example 144] , tested with human GPBAR1 receptor (Homo sapiens, UniProt Q8TDU6).
17

Find EC50 (human GPBAR1 receptor (Homo sapiens, UniProt Q8TDU6)) for the entry Cc1cc(/C(CC(c2cccc(-c3cccc(C(=O)NCC(=O)O)c3)c2)c2ccccc2C)=N/O)ccn1 (stereo not drawn) [Example 108]
76

Form entry - test system: human GPBAR1 receptor (Homo sapiens, UniProt Q8TDU6); read-out: EC50; molecule: Cc1cc(/C(C[C@H](c2ccc(C(=O)N[C@H]3CC[C@H](C(=O)O)CC3)cc2)c2ccccc2C)=N/O)ccn1 [Example 276]
59

Give EC50 (human GPBAR1 receptor (Homo sapiens, UniProt Q8TDU6)) of the following molecule: Cc1ccccc1C(C/C(=N\O)c1ccc(=O)n(C)c1)c1ccc(C(=O)NCCC(=O)O)cc1 (stereo not drawn) [Example 214]
1220

I'm curious: which EC50 was measured for CCOC(=O)c1ccc(-c2ccc([C@@H](C/C(=N\O)c3ccc(=O)n(C)c3)c3ccc(Cl)cc3F)cc2)s1 [Example 467] tested on human GPBAR1 receptor (Homo sapiens, UniProt Q8TDU6)?
348

Param readout = EC50; param system = human GPBAR1 receptor (Homo sapiens, UniProt Q8TDU6); param query = Cc1cc(/C(CC(c2ccc(C(F)(F)F)cc2)c2ccc(F)cc2F)=N/O)ccn1 (stereo not drawn) [Example 442] ; response: value
109

###

As shown below, each of these compounds has a reported pEC50 value.
target: human GPBAR1 receptor (Homo sapiens); construct: expressed in transfected cells; test: functional cAMP assay in CHO-dhfr(minus) cells expressing human GPBAR1 receptors; format: cell-based; details: human EC50, functional cAMP assay, 30 min at 30° C.
Keep it numeric: pEC50 is minus log10 of the concentration in mol/L.

Below, 6 compounds whose answers are already recorded.
{"columns": ["compound", "pEC50"],
 "data": [
  ["Cc1cc(/C(CC(c2ccc(-c3ccc(C(=O)O)c(Cl)c3)cc2)c2ccc(Cl)cc2F)=N/O)ccn1 (centres unmarked) [Example 451]", 7.62],
  ["Cc1cc(C(=O)O)ccc1-c1ccc([C@@H](C/C(=N\\O)c2ccc(=O)n(C)c2)c2ccc(Cl)cc2F)cc1 (single isomer, unassigned) [Example 465]", 6.46],
  ["Cn1cc(/C(CC(c2ccc(O)cc2)c2ccc(Cl)cc2F)=N/O)ccc1=O (centres unmarked) [Example 318]", 6.71],
  ["Cn1cc(/C(CC(c2ccc(-c3ccc(C(=O)O)cc3)cc2)c2ccc(Cl)cc2F)=N/O)ccc1=O (single isomer, unassigned; (-)) [Example 242]", 6.43],
  ["COCCN(C)c1ccc([C@@H](C/C(=N\\O)c2ccnc(C)c2)c2ccccc2C)cc1 [Example 267]", 7.74],
  ["Cn1cc(/C(CC(c2ccc(-c3ccc(C(=O)O)c(F)c3)cc2)c2ccc(Cl)cc2Cl)=N/O)ccc1=O (single isomer, unassigned) [Example 474]", 7.37]
]}

Attention now shifts to the item below.
Need pEC50 of Cn1cc(/C(CC(c2ccc(-c3c[nH]c(=O)[nH]c3=O)cc2)c2ccc(Cl)cc2F)=N/O)ccc1=O (centres unmarked) [Example 471] , thanks.
6.77
